solubility values for the molecules below.
- ASSAY SUMMARY: physchem
- CONDITION NOTES: pH 7.4, aqueous buffer, kinetic from dmso stock, Solubility 1st

MOLECULE	solubility, µM
CC(C)C(=O)OC[C@H]1O[C@@H](n2ccc(NO)nc2=O)[C@H](O)[C@@H]1O [molnupiravir, reference compound]	247
C[N+](C)(C)CCOP(=O)([O-])OP(=O)([O-])OC[C@H]1O[C@@H](n2ccc(NO)nc2=O)[C@H](O)[C@@H]1O.[Na+]	14.2

---

- ASSAY SUMMARY: physchem
- CONDITION NOTES: simulated gastric fluid, Solubility Mean

COMPOUND	solubility
C[N+](C)(C)CCOP(=O)([O-])OP(=O)([O-])OC[C@H]1O[C@@H](n2ccc(NO)nc2=O)[C@H](O)[C@@H]1O.[Na+] [Example 1]	< 1 µM
CC(C)C(=O)OC[C@H]1O[C@@H](n2ccc(NO)nc2=O)[C@H](O)[C@@H]1O [molnupiravir, reference compound]	> 200 µM
